For each of the compounds below, state its EC50.
# Tested on: Spodoptera littoralis
# Assay details: Antifeedant activity against Spodoptera littoralis sixth-instar larvae fed on compound treated Solanum tuberosum leaves assessed as inhibition of feeding
# Format: functional, organism-based

Provide each entry's EC50 from the list below.
1. C=C1C/C(=C\C)C(=O)O[C@@H]2CCN3CC=C(COC(=O)[C@]1(C)O)[C@H]23 [SPARTIOIDINE]
2. C/C=C1\C[C@@H](C)[C@](O)(CO)C(=O)OCC2=CCN3CC[C@@H](OC1=O)[C@@H]23 (stereo in doubt; 7) [RETRORSINE]
3. C[C@H]1C(=O)O[C@@H]2CCN3CC=C(COC(=O)[C@](C)(O)[C@]1(C)O)[C@H]23 [MONOCROTALINE]

0.2 microg/cm2
> 50 microg/cm2
> 50 microg/cm2

For every listed record, write down its EC50.
1. C=C1C(=O)O[C@@H]2CCN3CC=C(COC(=O)[C@](C)(O)[C@H](C)[C@H]1C)[C@H]23
2. C=C1C/C(=C/C)C(=O)O[C@@H]2CCN3CC=C(COC(=O)[C@]1(C)O)[C@H]23 [SENECIPHYLLINE]
3. C/C=C1/C[C@@H](C)[C@@](C)(OC(C)=O)C(=O)OC/C2=C/CN(C)CC[C@@H](OC1=O)C2=O [ACETYLSENKIRKINE]
4. C/C=C(/C)C(=O)O[C@@H]1CC[N+]2([O-])CC=C(COC(=O)[C@@](O)([C@H](C)O)C(C)(C)O)[C@H]12 (some centres not stated) [ECHIMIDINE N-OXIDE]
5. C/C=C1\C[C@@H](C)[C@@](C)(O)C(=O)OC/C2=C/CN(C)CC[C@@H](OC1=O)C2=O [SENKIRKINE]

1. > 50 microg/cm2
2. 50 microg/cm2
3. > 50 microg/cm2
4. > 50 microg/cm2
5. > 50 microg/cm2

Here are 4 compounds. What values of EC50 were reported for them?
1. C/C=C1/C[C@@]2(CO)O[C@@]2(C)C(=O)OCC2=CCN3CC[C@@H](OC1=O)[C@@H]23 [ERUCIFOLINE]
2. C/C=C(/C)C(=O)O[C@@H]1CCN2CC=C(COC(=O)[C@@](O)([C@H](C)O)C(C)(C)O)[C@H]12 [ECHIMIDINE]
3. C/C=C1\C[C@@H](C)[C@@](C)(O)C(=O)OCC2=CCN3CC[C@@H](OC1=O)[C@@H]23 [INTEGERRIMINE]
4. C/C=C1/C[C@@H](C)[C@@](C)(O)C(=O)OCC2=CCN3CC[C@@H](OC1=O)[C@@H]23 [SENECIONINE]

["> 50 microg/cm2", "> 50 microg/cm2", "> 100 microg/cm2", "> 50 microg/cm2"]

###

# System: Myzus persicae
# Assay details: Antifeedant activity against Myzus persicae (green peach aphid) adults fed on compound treated […] annuum leaves assessed as feeding level at 50 ug/cm2 (reference value: 43 to 70%)
# Assay type: functional
Hi there, I'd appreciate the recorded Activity for every entry that follows.
Numbers only, in %.

C/C=C1\C[C@@H](C)[C@@](C)(O)C(=O)OCC2=CCN3CC[C@@H](OC1=O)[C@@H]23    57

Batch request: Activity per item, same order as input.
1. C/C=C(/C)C(=O)O[C@@H]1CCN2CC=C(COC(=O)[C@@](O)([C@H](C)O)C(C)(C)O)[C@H]12
2. C=C1C/C(=C\C)C(=O)O[C@@H]2CCN3CC=C(COC(=O)[C@]1(C)O)[C@H]23
3. C/C=C1\C[C@@H](C)[C@](O)(CO)C(=O)OCC2=CCN3CC[C@@H](OC1=O)[C@@H]23 (stereo in doubt; 7) [RETRORSINE]
4. C/C=C1\C[C@@H](C)[C@](O)(CO)C(=O)OCC2=CCN3CC[C@@H](OC1=O)[C@@H]23 (stereo in doubt; 8) [RETRORSINE]

40
35
44
30
